// provenance: patent US20180291081A1

# experimental.target: T1, PD-1 molecule (refolded, purified and biotinylated PD-1 of Example 2) (UniProt Q15116 33-150, biotinylated with BirA enzyme (site not stated))
# T1 construct: also called Programmed Death-1
# T1 sequence (Q15116 33-150 limits assumed): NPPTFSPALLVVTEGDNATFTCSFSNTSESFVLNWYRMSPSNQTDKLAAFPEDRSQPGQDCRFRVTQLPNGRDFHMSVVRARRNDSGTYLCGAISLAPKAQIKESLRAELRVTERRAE
# experiment.summary: SPR (BIAcore T200), single-cycle kinetics; biotinylated PD-1 captured via streptavidin, PDL-1 variant in solution
Exercise: for every item that follows, state its recorded kon.
Value expressed in M⁻¹ s⁻¹; do not type the unit.

Ask: Give its kon value. Item: high affinity PDL-1 molecule L3B3 (ligand) FTVTVPKDLYVVEYGSNMTIECKFPVEKQLDLAALQVFWMMEDKNIIQFVHGEEDLKVQHSSYRQRARLLKDQLSLGNAALQITDVKLQDAGVYTCLIAYKGADYKRITVKVNAPYNKINQRILVVDPVTSEHELTCQAEGYPKAEVIWTSSDHQVLSGKTTTTNSKREEKLFNVTSTLRINTTTNEIFYCTFRRLDPEENHTAELVIPEL
Result: 142000

Ask: Let us now turn to high affinity PDL-1 molecule L2C4 (ligand) FTVTVPKDLYVVEYGSNMTIECKFPVEKQLDLAALQVHWWMEDKNIVSFVHGEEDLKVQHSSYRQRARLLKDQLSLGNAALQITDVKLQDAGVYRCMISYGGADYKRITVKVNAPYNKINQRILVVDPVTSEHELTCQAEGYPKAEVIWTSSDHQVLSGKTTTTNSKREEKLFNVTSTLRINTTTNEIFYCTFRRLDPEENHTAELVIPEL
Result: 11000

Ask: Queued: high affinity PDL-1 molecule L3C7d (ligand) WTVTVPKDLYVVEYGSNMTIECKFPVEKQLDLAALEVHWFMEDKNIFSFVHGEEDLKVQHSSYRQRARLLKDQLSLGNAALQITDVKLQDAGVYTCLIGYKGGADYKRITVKVNAPYNKINQRILVVDPVTSEHELTCQAEGYPKAEVIWTSSDHQVLSGKTTTTNSKREEKLFNVTSTLRINTTTNEIFYCTFRRLDPEENHTAELVIPEL
Result: 109000

Ask: What do you get for high affinity PDL-1 molecule L2G10 (ligand) FTVTVPKDLYVVEYGSNMTIECKFPVEKQLDLAALQVHWFMEDKNIYSFVHGEEDLKVQHSSYRQRARLLKDQLSLGNAALQITDVKLQDAGVYRCMISYGGADYKRITVKVNAPYNKINQRILVVDPVTSEHELTCQAEGYPKAEVIWTSSDHQVLSGKTTTTNSKREEKLFNVTSTLRINTTTNEIFYCTFRRLDPEENHTAELVIPEL ?
Result: 38700

Ask: // same read-out, input: high affinity PDL-1 molecule L3B3d (ligand) WTVTVPKDLYVVEYGSNMTIECKFPVEKQLDLAALQVFWMMEDKNILSFVHGEEDLKVQHSSYRQRARLLKDQLSLGNAALQITDVKLQDAGVYVCLIAYKGADYKRITVKVNAPYNKINQRILVVDPVTSEHELTCQAEGYPKAEVIWTSSDHQVLSGKTTTTNSKREEKLFNVTSTLRINTTTNEIFYCTFRRLDPEENHTAELVIPEL
Result: 54500
